target: SpTPC3 (Strongylocentrotus purpuratus, UniProt B8PXK0); construct: endogenous full-length protein immunoprecipitated with anti-SpTPC3 serum from solubilized egg membranes (S10P100 fraction); possibly homodimer; may carry associated proteins; assay: […]NAADP competition binding on immunoprecipitate; conditions: competitor against [32P]NAADP; immunopurified native complex; K+-dependent irreversible binding
Sequence (B8PXK0 1-840): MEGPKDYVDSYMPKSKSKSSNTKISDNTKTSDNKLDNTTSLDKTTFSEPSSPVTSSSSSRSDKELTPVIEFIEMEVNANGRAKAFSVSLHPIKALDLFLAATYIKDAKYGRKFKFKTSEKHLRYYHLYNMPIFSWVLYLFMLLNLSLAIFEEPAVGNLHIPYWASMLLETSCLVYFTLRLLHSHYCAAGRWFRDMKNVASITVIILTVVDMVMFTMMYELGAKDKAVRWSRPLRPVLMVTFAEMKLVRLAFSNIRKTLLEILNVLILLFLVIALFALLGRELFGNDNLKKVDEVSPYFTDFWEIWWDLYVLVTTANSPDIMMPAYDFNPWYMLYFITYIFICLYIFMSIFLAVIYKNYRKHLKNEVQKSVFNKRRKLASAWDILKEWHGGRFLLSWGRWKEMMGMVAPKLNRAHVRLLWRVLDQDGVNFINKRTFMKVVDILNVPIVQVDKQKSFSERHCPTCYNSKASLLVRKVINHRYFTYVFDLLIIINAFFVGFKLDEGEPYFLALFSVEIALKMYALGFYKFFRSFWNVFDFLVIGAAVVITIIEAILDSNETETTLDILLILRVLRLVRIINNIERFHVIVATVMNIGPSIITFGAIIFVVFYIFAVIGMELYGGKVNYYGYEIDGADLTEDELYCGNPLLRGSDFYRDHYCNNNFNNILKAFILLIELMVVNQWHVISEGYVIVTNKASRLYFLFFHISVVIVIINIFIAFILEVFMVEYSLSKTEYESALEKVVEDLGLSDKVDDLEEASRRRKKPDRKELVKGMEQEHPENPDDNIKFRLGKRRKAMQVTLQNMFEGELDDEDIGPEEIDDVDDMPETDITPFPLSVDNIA
recorded endpoint: IC50
Answer with the number, then the unit.

Give the reported IC50 for this molecule. `Nc1ncnc2c1ncn2[C@@H]1O[C@H](COP(=O)(O)OP(=O)(O)OC[C@H]2O[C@@H]([n+]3cccc(C(=O)O)c3)[C@H](O)[C@@H]2O)[C@@H](O)[C@H]1OP(=O)(O)O`
0.9 nM
